system_name: hA1 (Homo sapiens (Human))
Sequence (P30542 whole entry): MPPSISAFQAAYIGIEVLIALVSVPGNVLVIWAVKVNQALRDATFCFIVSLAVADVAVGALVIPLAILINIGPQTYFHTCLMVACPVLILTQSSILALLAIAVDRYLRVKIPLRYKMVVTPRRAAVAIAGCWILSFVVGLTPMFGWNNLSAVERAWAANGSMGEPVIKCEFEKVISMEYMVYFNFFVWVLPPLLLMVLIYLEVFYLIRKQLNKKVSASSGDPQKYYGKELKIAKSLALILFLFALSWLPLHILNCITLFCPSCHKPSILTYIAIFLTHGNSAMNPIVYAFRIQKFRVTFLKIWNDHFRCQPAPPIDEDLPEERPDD
experiment_summary: FLIPR inhibition assay in hADORA1/CHO (hA1 expressing) cells
Assay type: cell-based
cond: hADORA1/CHO cells, FLIPR calcium, adenosine stimulation; read-out: cAMP & FLIPR IC50 (nM) hA1
Procedure: hADORA1/CHO (hA1 expressing) cells (Genscript) were plated at 1×10^4 cells/well into 384-well polystyrene plates one day before starting the experiment. On the day of experiment, the supernatant was discard and replaced with 40 µL of dye (FLIPR calcium 5 Assay Kit) per well and the plates were incubated for 60 mins at 37° C. plus 5% CO2. Then testing compounds were added at different concentrations for FLIPR™ inhibition assay. […]
readout_label: IC50 (nM)
// note: answer is a bare numeric in nM

Cc1cc(-c2c(-c3ccc(F)cc3)nc(N)n3nc(Cc4cccc(C#N)n4)nc23)ccn1
23

Turning now to a further compound:
Request - read-out IC50 | tested on hA1 (Homo sapiens (Human)) | compound Cc1cnc2ccc(-c3c(-c4ccc(F)cc4)nc(N)n4nc(CC5CCOC5)nc34)cn12 (single isomer, unassigned; isomer 2) [Example 105-2]
11.8
